- System: MDA-MB-231 breast
- assay: NCI-60 one-dose screen, 48 h
- statedConditions: 10 µM unless noted
About 83,000 compounds went through this panel and 20% of them were active in at least one assay; those are over-represented in the sample as a whole. Activity calls are given as the source filed them. Rule for the calls: active = growth percent below 10; inactive = the rest.
Output constraint: value belongs to active, inactive

In this assay, the call recorded for CSc1[nH]c2ncnc(N)c2c1C#N was what? inactive

In this assay, the call recorded for CC/C=C\C[C@H](F)C/C=C1/C(=O)C=C[C@@H]1C/C=C\CCCC(=O)OC was what? active

In this assay, the call recorded for Cc1sc2nc3[nH]/c(=C\c4ccc(Cl)cc4)c(=O)n3c(=O)c2c1C was what? inactive

In this assay, the call recorded for CC(=O)C1=C(O)C=C2Oc3c(C(=O)/C=C/c4cc(C(F)(F)F)cc(C(F)(F)F)c4)c(O)c(C)c(O)c3[C@]2(C)C1=O was what? active

Next:
In this assay, the call recorded for COc1cc(C2CC(=O)Nc3c2c(C)nn3-c2nc3ccccc3[nH]2)cc(OC)c1OC (centres undefined) was what? inactive

In this assay, the call recorded for CCOC(=O)N1CCN(c2nc(Nc3cc(C)[nH]n3)c3ccccc3n2)CC1 was what? inactive

In this assay, the call recorded for COc1ccc(CN(c2ccc(C)cc2)C2OC(=O)c3ccccc32)cc1OC (centres undefined) was what? inactive

In this assay, the call recorded for COc1cccc(-c2nc3sccn3c2-c2ccnc(NCCCNS(=O)(=O)c3ccccc3)c2)c1 was what? inactive

In this assay, the call recorded for COc1cc(C2CC(=O)c3c(C)nn(-c4nc5ccccc5[nH]4)c3C2)cc(OC)c1OC (centres undefined) was what? inactive
